Target: JAK2 (Homo sapiens (Human), UniProt O60674)
Sequence (O60674 whole entry, species assumed): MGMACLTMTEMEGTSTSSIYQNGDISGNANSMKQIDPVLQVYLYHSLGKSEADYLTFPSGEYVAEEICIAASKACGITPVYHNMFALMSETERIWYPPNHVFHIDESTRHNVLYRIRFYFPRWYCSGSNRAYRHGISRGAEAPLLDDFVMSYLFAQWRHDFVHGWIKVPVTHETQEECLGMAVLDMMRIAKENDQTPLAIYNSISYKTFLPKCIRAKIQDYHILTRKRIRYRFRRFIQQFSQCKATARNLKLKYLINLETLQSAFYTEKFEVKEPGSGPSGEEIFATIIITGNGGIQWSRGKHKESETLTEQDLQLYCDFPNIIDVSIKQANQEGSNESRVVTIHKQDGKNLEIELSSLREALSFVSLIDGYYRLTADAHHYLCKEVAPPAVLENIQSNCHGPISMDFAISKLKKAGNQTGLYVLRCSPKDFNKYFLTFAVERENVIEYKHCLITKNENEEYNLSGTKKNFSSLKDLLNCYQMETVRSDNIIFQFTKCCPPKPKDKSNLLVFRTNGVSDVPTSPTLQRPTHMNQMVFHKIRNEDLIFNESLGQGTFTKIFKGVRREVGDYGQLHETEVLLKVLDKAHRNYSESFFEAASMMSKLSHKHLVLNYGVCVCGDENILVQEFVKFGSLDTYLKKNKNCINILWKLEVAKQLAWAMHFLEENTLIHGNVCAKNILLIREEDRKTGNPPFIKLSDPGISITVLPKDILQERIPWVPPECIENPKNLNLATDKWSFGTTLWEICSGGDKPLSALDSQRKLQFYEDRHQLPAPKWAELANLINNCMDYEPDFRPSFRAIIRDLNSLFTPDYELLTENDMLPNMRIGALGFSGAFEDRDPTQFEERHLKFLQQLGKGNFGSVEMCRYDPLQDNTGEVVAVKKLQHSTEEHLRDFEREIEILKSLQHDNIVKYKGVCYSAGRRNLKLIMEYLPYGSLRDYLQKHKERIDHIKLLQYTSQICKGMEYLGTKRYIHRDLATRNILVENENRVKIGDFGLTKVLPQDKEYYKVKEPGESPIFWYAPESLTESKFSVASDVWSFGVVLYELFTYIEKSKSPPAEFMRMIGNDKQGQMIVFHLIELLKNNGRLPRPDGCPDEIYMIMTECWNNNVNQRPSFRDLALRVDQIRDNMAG
Assay: JAK2 versus JAK1 (Assay A at 1 mM ATP)
Assay type: biochemical
Settings: ratio JAK2/JAK1, Assay A at 1 mM ATP
metric: JAK2/JAK1

compound	targetEntity	metric	experimentalResult
N#CC[C@]1(n2cc(-c3ncnc4[nH]ccc34)cn2)C[C@H](N2CCN(C(=O)c3ccnc(C(F)(F)F)n3)CC2)C1 [Compound 10]	JAK2 (Homo sapiens (Human), UniProt O60674)	JAK2/JAK1	>10
CCNCc1cc(O[C@H]2CC[C@@H](N3CC(CC#N)(n4cc(-c5ncnc6[nH]ccc56)cn4)C3)CC2)nc(C(F)(F)F)c1 [Compound 19]	JAK2 (Homo sapiens (Human), UniProt O60674)	JAK2/JAK1	>10

JAK2/JAK1 for JAK2 (Homo sapiens (Human), UniProt O60674) with input C[C@H](NC(=O)c1cc(F)c(N2CC(CC#N)(n3cc(-c4ncnc5[nH]ccc45)cn3)C2)cc1F)C(F)(F)F [Compound 16] equals >10

###

Target: JAK1 (Homo sapiens (Human), UniProt P23458)
Sequence (P23458 whole entry, species assumed): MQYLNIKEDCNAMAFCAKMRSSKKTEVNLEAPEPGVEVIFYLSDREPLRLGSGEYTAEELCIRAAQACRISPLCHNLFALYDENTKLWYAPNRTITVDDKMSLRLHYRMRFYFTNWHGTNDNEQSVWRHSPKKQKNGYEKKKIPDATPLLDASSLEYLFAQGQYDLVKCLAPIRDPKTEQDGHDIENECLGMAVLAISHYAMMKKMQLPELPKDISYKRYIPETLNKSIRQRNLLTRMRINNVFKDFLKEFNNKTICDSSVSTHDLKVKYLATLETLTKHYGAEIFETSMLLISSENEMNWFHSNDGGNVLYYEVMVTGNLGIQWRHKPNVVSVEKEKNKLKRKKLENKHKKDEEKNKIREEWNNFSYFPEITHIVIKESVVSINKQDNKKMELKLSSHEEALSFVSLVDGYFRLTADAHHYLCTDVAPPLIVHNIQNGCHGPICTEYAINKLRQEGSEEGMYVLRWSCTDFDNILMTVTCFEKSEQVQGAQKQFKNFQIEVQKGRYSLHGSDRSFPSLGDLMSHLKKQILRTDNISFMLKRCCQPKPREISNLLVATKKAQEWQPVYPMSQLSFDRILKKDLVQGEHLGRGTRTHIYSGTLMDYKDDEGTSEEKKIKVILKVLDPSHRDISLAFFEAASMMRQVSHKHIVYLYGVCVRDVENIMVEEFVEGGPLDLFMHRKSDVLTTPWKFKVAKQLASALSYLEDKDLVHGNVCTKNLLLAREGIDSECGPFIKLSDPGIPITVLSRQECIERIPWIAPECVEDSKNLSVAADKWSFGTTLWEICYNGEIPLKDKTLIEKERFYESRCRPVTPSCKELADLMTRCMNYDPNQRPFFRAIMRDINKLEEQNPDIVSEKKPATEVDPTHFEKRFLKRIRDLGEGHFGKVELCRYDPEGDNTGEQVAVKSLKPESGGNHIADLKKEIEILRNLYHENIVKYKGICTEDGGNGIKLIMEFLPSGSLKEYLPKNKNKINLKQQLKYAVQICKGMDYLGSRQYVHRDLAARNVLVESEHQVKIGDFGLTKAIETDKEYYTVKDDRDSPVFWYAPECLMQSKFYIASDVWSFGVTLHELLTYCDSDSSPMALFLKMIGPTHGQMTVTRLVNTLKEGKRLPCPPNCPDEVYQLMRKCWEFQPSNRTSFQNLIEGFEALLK
pIC50: −log10 of the molar value.
metric: pIC50

C[C@@H](O)c1nc2cnc3ccsc3c2n1[C@H]1CC[C@H](CC#N)OC1 yielded pIC50 of > 7.00
